- Protocol Text: Pharmacokinetics after a single oral dose in mice
- Assay type: in vivo, mouse
- Reported Conditions: mouse; urine; oral 25 mg/kg
Let's look at some compounds and their measured AUC.
Property Label: AUC (µM·h)

Compound | Measured
O=C(O)C1CCCN1Cc1cc2c(cc1O)OCC(c1ccc(O)cc1)=C2 (centres unmarked) | 34
CN(C)Cc1cc2c(cc1O)OCC(c1ccc(O)cc1)=C2 | 9.3

---

- System: 5-lipoxygenase (5-LO)
- Protocol Text: Synthesis of LTB4 and its metabolites in calcium ionophore-stimulated neutrophils (HPLC)
- Format: cell-based, human
- Reported Conditions: Neutrophil; human neutrophils, calcium ionophore; read-out: IC50 for the production of LTB4

Compound | Measurement Units | IC50
CN(C)Cc1cc2c(cc1O)OCC(c1ccc(O)cc1)=C2 | µM | 4.3
O=C(O)C1CCCN1Cc1cc2c(cc1O)OCC(c1ccc(O)cc1)=C2 (centres unmarked) | µM | 5.4

---

- Protocol Text: Pharmacokinetics after a single oral dose in mice
- Format: in vivo, mouse
- Reported Conditions: mouse; serum; oral 25 mg/kg in PEG 400/PBS 1:1
Property Label: AUC (µM·h)

Molecule | Measured
O=C(O)C1CCCN1Cc1cc2c(cc1O)OCC(c1ccc(O)cc1)=C2 (centres unmarked) [Compound (3)] | 0.108
CN(C)Cc1cc2c(cc1O)OCC(c1ccc(O)cc1)=C2 [Compound (1)] | 0.127

---

Let's look at some compounds and their measured half-life.
- Protocol Text: Pharmacokinetics after a single oral dose in mice
- Type: in vivo, mouse
- Reported Conditions: mouse, oral, 25 mg/kg; serum; unconjugated; one phase exponential decay; read-out: t1/2 (free)

Compound | half-life
O=C(O)C1CCCN1Cc1cc2c(cc1O)OCC(c1ccc(O)cc1)=C2 (centres unmarked) [Compound (3)] | 28 min
CN(C)Cc1cc2c(cc1O)OCC(c1ccc(O)cc1)=C2 [Compound (1)] | 9 min
